The reported numbers originate from the array DNA melting data of Ke et al. (doi:10.1101/2024.01.08.574731).

Listed next: entries and their corresponding Tm.
- Procedure Details: melting temperature; fluorescence melt of hairpins on a sequencing array, two-state fit, raised by 9.35 °C to match UV melts
- Condition: sodium 0.088 M

{"Input Sequence": "GCTACGGGAAACCGCAGC (((.(((....))).)))", "Readout Units": "°C", "Tm": 49.7}
{"Input Sequence": "GCCGGGCGAAAGCGCAGC ((.(.((....)).).))", "Readout Units": "°C", "Tm": 43.3}
{"Input Sequence": "GATCTAGGTCTAGATC ((((((....))))))", "Readout Units": "°C", "Tm": 46.2}
{"Input Sequence": "GATCGTTTAACGATC ((((((...))))))", "Readout Units": "°C", "Tm": 55.7}
{"Input Sequence": "GCGATGGATCGC ((((....))))", "Readout Units": "°C", "Tm": 52.8}
{"Input Sequence": "GATTACGAAAGTAGAATC ((((((....)))..)))", "Readout Units": "°C", "Tm": 27.4}
{"Input Sequence": "GATCAGAAGCTGATC ((((((...))))))", "Readout Units": "°C", "Tm": 48}

* * *

- Procedure Details: melting temperature; fluorescence melt of hairpins on a sequencing array, two-state fit, raised by 9.35 °C to match UV melts
- Condition: sodium 0.088 M
Label Fulfilled when Tm >= 50 °C; otherwise Not fulfilled.

{"Input Sequence": "GTGTTGTCGAAAGACCAC (((..(((....))))))", "Assigned Category": "Not fulfilled"}
{"Input Sequence": "GCCTTCGAAAGAAGCGGC ((((((....)))..)))", "Assigned Category": "Not fulfilled"}
{"Input Sequence": "GGGACCGAAAGGTTGCCC ((((((....)))..)))", "Assigned Category": "Not fulfilled"}
{"Input Sequence": "GATATCGGAAACGGTATC ((((.((....)).))))", "Assigned Category": "Not fulfilled"}
{"Input Sequence": "GCATTGGGAAACCGATGC ((((.((....)).))))", "Assigned Category": "Fulfilled"}
{"Input Sequence": "GATCTAGCCTTAGATC ((((((....))))))", "Assigned Category": "Not fulfilled"}
{"Input Sequence": "GAGGTAGGAAACTATCTC (((.(((....))).)))", "Assigned Category": "Not fulfilled"}
{"Input Sequence": "GATTTGCGAAAGCAATC (((.(((....))))))", "Assigned Category": "Not fulfilled"}
{"Input Sequence": "GATCAGGGGCTGATC ((((((...))))))", "Assigned Category": "Not fulfilled"}
{"Input Sequence": "GATCGAGTATTCGATC ((((((....))))))", "Assigned Category": "Fulfilled"}
{"Input Sequence": "GCGAGATTCGC ((((...))))", "Assigned Category": "Not fulfilled"}
{"Input Sequence": "GGTACCGGAAACGGTATC (.(((((....))))).)", "Assigned Category": "Fulfilled"}
{"Input Sequence": "GCTACCGAAAGGTATAGC ((((((....)))..)))", "Assigned Category": "Not fulfilled"}
{"Input Sequence": "GCTCCGCGAAAGCGTTGC ((..(((....)))..))", "Assigned Category": "Not fulfilled"}
{"Input Sequence": "GGCCTTGGAAACAAGGTC (.(((((....))))).)", "Assigned Category": "Fulfilled"}
{"Input Sequence": "GGAGTTGGAAACAGTTCC (((..((....))..)))", "Assigned Category": "Not fulfilled"}
{"Input Sequence": "GGTTAGGCGAAAGCCACC (((..(((....))))))", "Assigned Category": "Not fulfilled"}
{"Input Sequence": "GGAGCAGGAAACTACTCC ((((.((....)).))))", "Assigned Category": "Not fulfilled"}
{"Input Sequence": "GATCCCTAGGGGGATC ((((((....))))))", "Assigned Category": "Fulfilled"}
{"Input Sequence": "GCATTGCGAAAGCTGTGC (((..((....))..)))", "Assigned Category": "Fulfilled"}
{"Input Sequence": "GGGAGGTCGAAAGACCCC (((..(((....))))))", "Assigned Category": "Fulfilled"}
{"Input Sequence": "GATCAATCCCTTGATC ((((((....))))))", "Assigned Category": "Not fulfilled"}
{"Input Sequence": "GGAGCTGGAAACAGCCCC ((.((((....)))).))", "Assigned Category": "Fulfilled"}
{"Input Sequence": "GGTTCCGAAAGGAGTACC ((((((....)))..)))", "Assigned Category": "Not fulfilled"}
{"Input Sequence": "GCGACAGGAAACTGTTGC ((.((((....)))).))", "Assigned Category": "Fulfilled"}
{"Input Sequence": "GACACCGAAAGGTCGGTC ((((((....)))..)))", "Assigned Category": "Not fulfilled"}
{"Input Sequence": "GCGCAAGGAAACTCGCAC (.((.((....)).)).)", "Assigned Category": "Not fulfilled"}
{"Input Sequence": "GCGTGTGGAAACGCACGC (((((.(....).)))))", "Assigned Category": "Fulfilled"}
{"Input Sequence": "GCAACACGAAAGTGATGC (((.(((....))).)))", "Assigned Category": "Fulfilled"}
{"Input Sequence": "GGGCTGGGAAACTGGCCC ((((..(....)..))))", "Assigned Category": "Fulfilled"}
{"Input Sequence": "GCGAATCATCGC ((((....))))", "Assigned Category": "Not fulfilled"}
{"Input Sequence": "GTCATCGAAAGATGAGAC ((((((....)))..)))", "Assigned Category": "Not fulfilled"}
{"Input Sequence": "GCTGACGAAAGTCTCAGC ((((((....)))..)))", "Assigned Category": "Not fulfilled"}
{"Input Sequence": "GGCTCCGGAAACGGGGCC (((.(((....))).)))", "Assigned Category": "Fulfilled"}
{"Input Sequence": "GATCTCGTTAGAGATC ((((((....))))))", "Assigned Category": "Fulfilled"}
{"Input Sequence": "CGTTACGGAAACGTACG (((.(((....))))))", "Assigned Category": "Not fulfilled"}
{"Input Sequence": "GTCTTGGAAACAAGAC ((((((....))))))", "Assigned Category": "Fulfilled"}
{"Input Sequence": "GATCCAGTAGTGGATC ((((((....))))))", "Assigned Category": "Fulfilled"}
{"Input Sequence": "GACCTGGGAAACCAGGCC (.(((((....))))).)", "Assigned Category": "Not fulfilled"}
{"Input Sequence": "GCCTGGAAACAGGC (((((....)))))", "Assigned Category": "Fulfilled"}
{"Input Sequence": "GATCTCGTAAGAGATC ((((((....))))))", "Assigned Category": "Fulfilled"}
{"Input Sequence": "GATCGGGTCCCCGATC ((((((....))))))", "Assigned Category": "Fulfilled"}
